biological target: mouse kappa opioid receptor (mKOR) (Mus musculus, UniProt P33534); construct: Stimulation of Endogenous Mouse Kappa-Opioid Receptor in R1.G1 Cells; host or cells: R1.G1 mouse thymoma cells; assay: cell-based; details: read-out: mKOR Efficacy(%)
Sequence (P33534 whole entry): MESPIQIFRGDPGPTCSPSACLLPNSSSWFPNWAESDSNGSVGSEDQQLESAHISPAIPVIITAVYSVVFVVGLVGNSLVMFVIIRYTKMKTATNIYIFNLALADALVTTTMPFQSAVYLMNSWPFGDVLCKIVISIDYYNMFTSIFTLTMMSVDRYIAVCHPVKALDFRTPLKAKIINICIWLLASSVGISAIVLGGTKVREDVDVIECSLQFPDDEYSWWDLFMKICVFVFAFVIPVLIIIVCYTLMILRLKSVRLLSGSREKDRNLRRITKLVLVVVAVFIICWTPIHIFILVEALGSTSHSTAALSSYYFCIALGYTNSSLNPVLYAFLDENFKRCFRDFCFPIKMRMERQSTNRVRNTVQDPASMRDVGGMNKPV
Square brackets hold non-standard residues; d marks the D form. Peptide text beside a SMILES is read from it. * marks the point of attachment. Piperidinyl(4-(1-Pro-OH)) = O=C(O)[C@@H]1CCCN1C1CCN(*)CC1; Piperidin1yl(4-NH2,4-COOH) = NC1(C(=O)O)CCN(*)CC1; d(hArg) = N=C(N)NCCCC[C@@H](N)C(=O)O; Homopiperazinyl = C1CNCCN(*)C1; dAgp = N=C(N)NC[C@@H](N)C(=O)O; dNle = CCCC[C@@H](N)C(=O)O
measure: Emax (%)
Numbers only, in %.

## Input Emax lookup needed for "Cc1nnc(C)n1C1CCN(C(=O)[C@@H](CCCCN)NC(=O)[C@@H](CC(C)C)NC(=O)[C@@H](Cc2ccccc2)NC(=O)[C@H](N)Cc2ccccc2)CC1" , thanks.
## Output 86

Hi, could you look up Emax for each item in my list?
1. CCCC[C@@H](NC(=O)[C@@H](Cc1ccccc1)NC(=O)[C@H](N)Cc1ccccc1)C(=O)N[C@H](CNC(=N)N)C(=O)N1CCCNCC1 [Compound (21)] (H-[dF][dF][dNle][dAgp]-Homopiperazinyl)
2. CC(C)C[C@@H](NC(=O)[C@@H](Cc1ccccc1)NC(=O)[C@H](N)Cc1ccccc1)C(=O)N[C@H](CCCN)C(=O)NCCN1CCN(CC(=O)O)CC1
3. CC(C)C[C@@H](NC(=O)[C@@H](Cc1ccccc1)NC(=O)[C@H](N)Cc1ccccc1)C(=O)N[C@H](CCCCN)C(=O)N1CCN(C(=O)c2ccccc2)CC1
4. CC(C)C[C@@H](NC(=O)[C@@H](Cc1ccccc1)NC(=O)[C@H](N)Cc1ccccc1)C(=O)N[C@H](CCCCN)C(=O)NCc1ccc(C(F)(F)F)nc1
5. CC(C)C[C@@H](NC(=O)[C@@H](Cc1ccccc1)NC(=O)[C@H](N)Cc1ccccc1)C(=O)N[C@H](CNC(=N)N)C(=O)N1CCC(N)(C(=O)O)CC1 [Compound (10)] (H-[dF][dF][dL][dAgp]-{Piperidin1yl(4-NH2,4-COOH)})
6. CC(C)C[C@@H](NC(=O)[C@@H](Cc1ccccc1)NC(=O)[C@H](N)Cc1ccccc1)C(=O)N[C@H](CCCCNC(=N)N)C(=O)N1CCC(N2CCC[C@H]2C(=O)O)CC1 [Compound (5)] (H-[dF][dF][dL][d(hArg)]-{Piperidinyl(4-(1-Pro-OH))})

## Output
[103, 98, 92, 85, 90, 89]

====

target: mouse kappa opioid receptor (mKOR) (Mus musculus); construct: Stimulation of Endogenous Mouse Kappa-Opioid Receptor in R1.G1 Cells; host or cells: R1.G1 mouse thymoma cells; assay: cell-based; settings: read-out: mKOR Efficacy(%)
measure: Emax (%)
Numbers only, in %.

## Input I would be grateful if you could share the reported Emax for "CNCCC[C@@H](NC(=O)[C@@H](CC(C)C)NC(=O)[C@@H](Cc1ccccc1)NC(=O)[C@H](N)Cc1ccccc1)C(=O)N1CCCN(C(=N)N)CC1" .
## Output 97

## Input // lookup Emax for "CC(C)C[C@@H](NC(=O)[C@@H](Cc1ccccc1)NC(=O)[C@H](N)Cc1ccccc1)C(=O)N[C@H](CCCN)C(=O)N[C@@H]1CN[C@H](C(=O)O)C1"
## Output 96

Continuing:
## Input Param item = "CC(C)C[C@@H](NC(=O)[C@H](N)Cc1ccccc1)C(=O)N[C@H](CCCN)C(=O)N[C@H](CCCCNC(=O)[C@@H](CCCN)NC(=O)[C@@H](CC(C)C)NC(=O)[C@@H](Cc1ccccc1)NC(=O)[C@H](N)Cc1ccccc1)C(=O)O" ; retrieve measured Emax.
## Output 85
